# System: murine gastric organoid WNT-activated (Apc fl/fl; Tp53 R172H)
# method: IC50 (viability, PrestoBlue) (log10 nM)
# condition-description: exposure time: 72 h

{"compound": "COc1cc2c(cc1OC)CN(CCc1ccc(NC(=O)c3cc(OC)c(OC)cc3NC(=O)c3cnc4ccccc4c3)cc1)CC2", "IC50 (log10 nM)": 3.76}
{"compound": "C/C=C1\\NC(=O)[C@H]2CSSCC/C=C/[C@H](CC(=O)N[C@H](C(C)C)C(=O)N2)OC(=O)[C@H](C(C)C)NC1=O", "IC50 (log10 nM)": 0.997}
{"compound": "C=CCc1ccc(O)c(-c2ccc(O)c(CC=C)c2)c1", "IC50 (log10 nM)": 3.87}
{"compound": "COc1cc([C@@H]2c3cc4c(cc3[C@@H](O[C@@H]3O[C@@H]5CO[C@@H](c6cccs6)O[C@H]5[C@H](O)[C@H]3O)[C@H]3COC(=O)[C@H]23)OCO4)cc(OC)c1O [Teniposide]", "IC50 (log10 nM)": 2.84}

* * *

As shown below, each of these compounds has a reported IC50 (log10 nM) value.
# System: murine gastric organoid diffuse (Cdh1 fl/fl; Apc fl/fl)
# method: IC50 (viability, PrestoBlue) (log10 nM)
# condition-description: exposure time: 72 h
Counter-ions that a name gives are not always drawn.

{"compound": "Cn1nccc1Nc1nccc(-c2ccn([C@H](CO)c3ccc(Cl)c(F)c3)c(=O)c2)n1 [GDC-0994]", "value-comparator": "=", "IC50 (log10 nM)": 3.23}
{"compound": "COc1cccc2c1C(=O)c1c(O)c3c(c(O)c1C2=O)C[C@@](O)(C(=O)CO)C[C@@H]3O[C@H]1C[C@H](N)[C@H](O)[C@H](C)O1", "value-comparator": "=", "IC50 (log10 nM)": 2.23}
{"compound": "Nc1ncn([C@@H]2O[C@H](CO)[C@@H](O)[C@H]2O)c(=O)n1", "value-comparator": "=", "IC50 (log10 nM)": 3.5}
{"compound": "Cn1nccc1Nc1nccc(-c2ccn([C@H](CO)c3ccc(Cl)c(F)c3)c(=O)c2)n1 [Ravoxertinib]", "value-comparator": ">", "IC50 (log10 nM)": 4.4}
{"compound": "CNC(=O)c1cc(Oc2ccc(NC(=O)Nc3ccc(Cl)c(C(F)(F)F)c3)c(F)c2)ccn1", "value-comparator": "=", "IC50 (log10 nM)": 3.97}
{"compound": "CC(C)C[C@H](NC(=O)[C@H](Cc1ccccc1)NC(=O)c1cnccn1)B(O)O", "value-comparator": "=", "IC50 (log10 nM)": 1.1}
{"compound": "CS(=O)(=O)CCNCc1ccc(-c2ccc3ncnc(Nc4ccc(OCc5cccc(F)c5)c(Cl)c4)c3c2)o1", "value-comparator": "=", "IC50 (log10 nM)": 2.84}
{"compound": "C=CC(=O)Nc1cc2c(Nc3ccc(F)c(Cl)c3)ncnc2cc1OCCCN1CCOCC1", "value-comparator": "=", "IC50 (log10 nM)": 2.6}
{"compound": "CN(C)CCN1C(=O)c2cccc3cc(N)cc(c23)C1=O [Amonafide]", "value-comparator": "=", "IC50 (log10 nM)": 3.23}
{"compound": "CC(=O)[C@]1(O)Cc2c(O)c3c(c(O)c2[C@@H](O[C@H]2C[C@H](N)[C@H](O)[C@H](C)O2)C1)C(=O)c1ccccc1C3=O [Idarubicin hydrochloride]", "value-comparator": "=", "IC50 (log10 nM)": 1.41}
{"compound": "C/C=C1\\NC(=O)[C@H]2CSSCC/C=C/[C@H](CC(=O)N[C@H](C(C)C)C(=O)N2)OC(=O)[C@H](C(C)C)NC1=O", "value-comparator": "=", "IC50 (log10 nM)": 0.852}
{"compound": "CN1CCN(c2ccc3nc(-c4c(N)c5c(F)cccc5[nH]c4=O)[nH]c3c2)CC1", "value-comparator": "=", "IC50 (log10 nM)": 3.4}
{"compound": "C=CCc1ccc(O)c(-c2ccc(O)c(CC=C)c2)c1", "value-comparator": "=", "IC50 (log10 nM)": 4.28}
{"compound": "C[C@H](NC(=O)/C(C#N)=C/c1cccc(Br)n1)c1ccccc1", "value-comparator": "=", "IC50 (log10 nM)": 3.52}
{"compound": "COc1cc2ncnc(Nc3ccc(F)c(Cl)c3)c2cc1OCCCN1CCOCC1", "value-comparator": "=", "IC50 (log10 nM)": 2.65}
{"compound": "CCc1cnn2c(NCc3ccc[n+]([O-])c3)cc(N3CCCC[C@H]3CCO)nc12", "value-comparator": "=", "IC50 (log10 nM)": 4.11}
{"compound": "O=C(CCCCCCC(=O)Nc1ccccc1)NO", "value-comparator": "=", "IC50 (log10 nM)": 3.65}
{"compound": "COc1cc2c(Oc3ccc4[nH]c(C)cc4c3F)ncnc2cc1OCCCN1CCCC1 [Cediranib maleate]", "value-comparator": "=", "IC50 (log10 nM)": 2.67}
{"compound": "Nc1nc(Cl)nc2c1ncn2[C@H]1C[C@H](O)[C@@H](CO)O1", "value-comparator": "=", "IC50 (log10 nM)": 3.04}
{"compound": "Cn1cnc2c(F)c(Nc3ccc(Br)cc3F)c(C(=O)NOCCO)cc21", "value-comparator": "=", "IC50 (log10 nM)": 3.03}
{"compound": "CC[C@@H]1C(=O)N(C)c2cnc(Nc3ccc(C(=O)N[C@H]4CC[C@H](N5CCN(CC6CC6)CC5)CC4)cc3OC)nc2N1C(C)C", "value-comparator": "=", "IC50 (log10 nM)": 2.29}
{"compound": "CC(C)c1cc(-c2n[nH]c(=O)n2-c2ccc3c(ccn3C)c2)c(O)cc1O", "value-comparator": "=", "IC50 (log10 nM)": 1.5}
{"compound": "COc1ccc(/C=C\\c2cc(OC)c(OC)c(OC)c2)cc1OP(=O)(O)O [Fosbretabulin disodium]", "value-comparator": "=", "IC50 (log10 nM)": 2.47}
{"compound": "Nc1nc(Cl)nc2c1ncn2[C@@H]1O[C@H](CO)[C@@H](O)[C@@H]1F", "value-comparator": "=", "IC50 (log10 nM)": 2.97}
{"compound": "COC(=O)N[C@@H](C)CNc1nccc(-c2cn(C(C)C)nc2-c2cc(Cl)cc(NS(C)(=O)=O)c2F)n1", "value-comparator": "<", "IC50 (log10 nM)": 0.826}
{"compound": "CC(=O)Nc1ccc(C(=O)Nc2ccccc2N)cc1", "value-comparator": "=", "IC50 (log10 nM)": 3.97}
{"compound": "C#Cc1cccc(Nc2ncnc3cc(OCCOC)c(OCCOC)cc23)c1", "value-comparator": "=", "IC50 (log10 nM)": 2.97}
{"compound": "N.N.[Cl][Pt][Cl] [Cisplatin]", "value-comparator": "=", "IC50 (log10 nM)": 3.13}
{"compound": "Nc1ccccc1NC(=O)c1ccc(CNC(=O)OCc2cccnc2)cc1", "value-comparator": "=", "IC50 (log10 nM)": 3.39}
{"compound": "C=CC(=O)Nc1cc(Nc2nccc(-c3cn(C)c4ccccc34)n2)c(OC)cc1N(C)CCN(C)C", "value-comparator": "=", "IC50 (log10 nM)": 3.05}
{"compound": "Oc1ncc(N(CCCl)CCCl)c(O)n1", "value-comparator": "=", "IC50 (log10 nM)": 3.69}
{"compound": "Nc1ccn([C@@H]2O[C@H](CO)[C@@H](O)[C@@H]2O)c(=O)n1", "value-comparator": "=", "IC50 (log10 nM)": 2.71}
{"compound": "CC(C)C[C@H](NC(=O)CNC(=O)c1cc(Cl)ccc1Cl)B(O)O", "value-comparator": "=", "IC50 (log10 nM)": 2.51}
